Can you tell me self-cleavage for the items I'm about to list?
B1: LINE1-full (parent)
chain: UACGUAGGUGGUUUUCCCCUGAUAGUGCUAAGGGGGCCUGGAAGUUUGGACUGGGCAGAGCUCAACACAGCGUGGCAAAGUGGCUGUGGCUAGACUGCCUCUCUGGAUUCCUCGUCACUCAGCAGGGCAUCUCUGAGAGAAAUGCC

variants of: B1; assay: self-cleavage, relative activity (ratio to wild type); higher = more cleavage; in vitro, sequencing; the parent is a self-cleaving ribozyme
The response must contain the number and no unit.

The value of self-cleavage measured for the variant A24G U134A turned out to be 0.99

The value of self-cleavage measured for the variant A69G C90A turned out to be 0

The value of self-cleavage measured for the variant U100C A117C turned out to be 1.31

The value of self-cleavage measured for the variant U46A U100C turned out to be 1.75

The value of self-cleavage measured for the variant U85C C123G turned out to be 0.15

The value of self-cleavage measured for the variant U47C U52C turned out to be 1.18

The value of self-cleavage measured for the variant A77U G106A turned out to be 1.31

The value of self-cleavage measured for the variant U46G A136G turned out to be 1.96

The value of self-cleavage measured for the variant A24U U119G turned out to be 2.22

The value of self-cleavage measured for the variant A22G A59U turned out to be 0.33

The value of self-cleavage measured for the variant C16A turned out to be 0.96

The value of self-cleavage measured for the variant A31U U100A turned out to be 0.67

The value of self-cleavage measured for the variant G48U U108C turned out to be 1.27

The value of self-cleavage measured for the variant U47C G75A turned out to be 1.95

The value of self-cleavage measured for the variant U62C G114A turned out to be 0.05

The value of self-cleavage measured for the variant U52A U81A turned out to be 1.49

The value of self-cleavage measured for the variant U119C A140U turned out to be 0.97

The value of self-cleavage measured for the variant U96C U130A turned out to be 0.12

The value of self-cleavage measured for the variant A22G U45A turned out to be 0.94

The value of self-cleavage measured for the variant A59U A142C turned out to be 1.03

The value of self-cleavage measured for the variant G88A G114A turned out to be 0.08

The value of self-cleavage measured for the variant G32A U134C turned out to be 1.22

The value of self-cleavage measured for the variant A65G U132A turned out to be 0.04

The value of self-cleavage measured for the variant U13A A22G turned out to be 1.05

The value of self-cleavage measured for the variant U26A G32A turned out to be 0.44

The value of self-cleavage measured for the variant G25U U104A turned out to be 0.77

The value of self-cleavage measured for the variant U52A U102A turned out to be 1.03

The value of self-cleavage measured for the variant A42U U115A turned out to be 1.39

The value of self-cleavage measured for the variant A24G U46A turned out to be 0.9

The value of self-cleavage measured for the variant U13C U108A turned out to be 0.91

The value of self-cleavage measured for the variant U15C G34U turned out to be 1.65

The value of self-cleavage measured for the variant U1G C37G turned out to be 0.49

The value of self-cleavage measured for the variant A43G U73G turned out to be 1.56

The value of self-cleavage measured for the variant A22U A69U turned out to be 0.12

The value of self-cleavage measured for the variant G58U U130C turned out to be 0.05

The value of self-cleavage measured for the variant A57U G75A turned out to be 0.03

The value of self-cleavage measured for the variant U23A A136G turned out to be 1.31

The value of self-cleavage measured for the variant G11A U104C turned out to be 1.59

The value of self-cleavage measured for the variant C68U A92G turned out to be 0.05

The value of self-cleavage measured for the variant G25A G27A turned out to be 1.03

The value of self-cleavage measured for the variant U12G U104A turned out to be 1.76

The value of self-cleavage measured for the variant A2G C71G turned out to be 0.42

The value of self-cleavage measured for the variant U39C U91A turned out to be 0.39

The value of self-cleavage measured for the variant C17A U46C turned out to be 1.42

The value of self-cleavage measured for the variant A69C U134C turned out to be 0.03

The value of self-cleavage measured for the variant A30G A78G turned out to be 1.34

Every entry's value here was drawn from the RNAGym collection of RNA variant scans (doi:10.7554/elife.90254).
